- System: G. lamblia trophozoites (luciferase expressing, WBC6)
- Assay Info: microbe, parasite or virus in culture
- Type: cell-based, Giardia lamblia
- Cond: initial Pathogen Box screen, single concentration 16 µM, inhibition compared to DMSO wells
Is Giardia (16 uM) Mean % inhibition at least 30%? Then fulfilled. If not, not fulfilled.

Example entries and their recorded answers appear below.
Molecule	Answer Label
CC(C)(C)C(O)C(Oc1ccc(-c2ccccc2)cc1)n1cncn1 (centres unmarked)	fulfilled
COc1ccc(C2=NN(C3CCCCCC3)C(=O)C2(C)C)cc1OCCCCOc1ccc(-c2nn[nH]n2)cc1	fulfilled
CO/N=C(/C(=O)OC)c1ccccc1CO/N=C(/C)c1cccc(C(F)(F)F)c1	not fulfilled
CC(=O)NC[C@H]1CN(c2ccc(-c3ccc(CNCc4cn[nH]n4)cc3)c(F)c2)C(=O)O1	not fulfilled
Cc1cccc(-c2nc(Nc3ccncn3)c3sccc3n2)n1	fulfilled

Input line: Kindly determine if Giardia (16 uM) Mean % inhibition recorded for CCc1nc2ccc(C(=O)NCc3ccc4c(c3)OCO4)cn2c1N(C)Cc1cccs1 is above or exactly 30%.
Output line: not fulfilled

Input line: Hi, just wondering whether CCc1nc2ccccc2n1CC(O)COc1cc(C)ccc1Cl (centres unmarked) shows Giardia (16 uM) Mean % inhibition of 30% or higher.
Output line: fulfilled

Input line: Please tell me: is the molecule Nc1ncnc2c1c(Cc1cccc3ccccc13)nn2CC1CCNCC1 at or over 30% in terms of Giardia (16 uM) Mean % inhibition?
Output line: not fulfilled

Input line: Is Giardia (16 uM) Mean % inhibition for c1ccc2c(c1)CN(CC1CC1)CC1(CCN(Cc3c[nH]c4cnccc34)CC1)O2 at or above 30%?
Output line: fulfilled

Input line: Given O=C(Nc1cccc(Cl)c1)c1cnc(N2CCN(c3ccncc3)CC2)c(Cl)c1 , state whether its Giardia (16 uM) Mean % inhibition is at least 30%.
Output line: fulfilled
